method.description: Caco-2 permeability studies
Format: in vitro ADME
experimental.context: human, 1 h incubation
Description: Caco-2 cells (HTB-37) were cultured in T75 flasks using DMEM supplemented with 10% FBS, 1% glutamine, penicillin, and streptomycin at 37 °C and 5% CO2. […] Incubation lasted 1 h, and permeability was assessed using ranitidine/colchicine (low permeability) and labetalol/propranolol (high permeability) as controls. Samples were collected, quenched with methanol, centrifuged, and analyzed by HPLC-MS/MS to determine peak area ratios. […]
readout: Papp A→B at 1 h, 10 μM (×10⁻⁶ cm/s)
Report the figure in ×10⁻⁶ cm/s without appending any unit label.

input: Input O=C(N[C@H]1CC[C@@]2(O)[C@H]3Cc4ccc(O)c5c4[C@@]2(CCN3CC2CC2)[C@H]1O5)c1nccs1 [Compound 6] , output reported Papp A→B at 1 h, 10 μM.
output: 13.1

====

target.under.test: DOR (Homo sapiens)
Sequence (P41143 whole entry): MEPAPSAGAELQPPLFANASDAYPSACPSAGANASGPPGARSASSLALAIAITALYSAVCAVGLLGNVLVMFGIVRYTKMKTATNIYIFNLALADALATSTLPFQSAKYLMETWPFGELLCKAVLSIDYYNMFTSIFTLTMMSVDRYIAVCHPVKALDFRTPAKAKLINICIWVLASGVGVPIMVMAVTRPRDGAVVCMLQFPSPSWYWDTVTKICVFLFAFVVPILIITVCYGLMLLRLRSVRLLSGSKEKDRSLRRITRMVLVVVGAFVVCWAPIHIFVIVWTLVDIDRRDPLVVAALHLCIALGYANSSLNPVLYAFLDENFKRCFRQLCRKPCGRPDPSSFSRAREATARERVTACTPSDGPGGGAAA
method.description: DOR [35S]GTPγS functional assay
Listed compounds paired with reported pEC50
Note: pEC50 values are expressed as the negative base-10 logarithm of concentration in M.

input: Find the measured pEC50 of "O=C(N[C@@H]1CC[C@@]2(O)[C@H]3Cc4ccc(O)c5c4[C@@]2(CCN3CC2CC2)[C@H]1O5)c1nccs1" and report it.
output: 7.36

input: Could you please provide reported pEC50 for "O=C(N[C@@H]1CC[C@@]2(O)[C@H]3Cc4ccc(O)c5c4[C@@]2(CCN3CC2CC2)[C@H]1O5)c1ccns1" ? Thanks!
output: 7.24

input: Give recorded pEC50. "O=C(N[C@H]1CC[C@@]2(O)[C@H]3Cc4ccc(O)c5c4[C@@]2(CCN3CC2CC2)[C@H]1O5)c1nccs1"
output: 7.63

====

method.description: In vitro metabolic stability in Sprague-Dawley rat liver microsomes
Type: in vitro ADME
experimental.context: Sprague-Dawley rat liver microsomes, 1.0E-07 M
readout: microsomal CLint at 100 nM

input: Consider the compound "O=C(N[C@H]1CC[C@@]2(O)[C@H]3Cc4ccc(O)c5c4[C@@]2(CCN3CC2CC2)[C@H]1O5)c1nccs1" . State its measured microsomal CLint at 100 nM.
output: < 38.5 µL/min/mg

====

target.under.test: hERG potassium channel (Homo sapiens, UniProt Q12809)
Sequence (Q12809 whole entry): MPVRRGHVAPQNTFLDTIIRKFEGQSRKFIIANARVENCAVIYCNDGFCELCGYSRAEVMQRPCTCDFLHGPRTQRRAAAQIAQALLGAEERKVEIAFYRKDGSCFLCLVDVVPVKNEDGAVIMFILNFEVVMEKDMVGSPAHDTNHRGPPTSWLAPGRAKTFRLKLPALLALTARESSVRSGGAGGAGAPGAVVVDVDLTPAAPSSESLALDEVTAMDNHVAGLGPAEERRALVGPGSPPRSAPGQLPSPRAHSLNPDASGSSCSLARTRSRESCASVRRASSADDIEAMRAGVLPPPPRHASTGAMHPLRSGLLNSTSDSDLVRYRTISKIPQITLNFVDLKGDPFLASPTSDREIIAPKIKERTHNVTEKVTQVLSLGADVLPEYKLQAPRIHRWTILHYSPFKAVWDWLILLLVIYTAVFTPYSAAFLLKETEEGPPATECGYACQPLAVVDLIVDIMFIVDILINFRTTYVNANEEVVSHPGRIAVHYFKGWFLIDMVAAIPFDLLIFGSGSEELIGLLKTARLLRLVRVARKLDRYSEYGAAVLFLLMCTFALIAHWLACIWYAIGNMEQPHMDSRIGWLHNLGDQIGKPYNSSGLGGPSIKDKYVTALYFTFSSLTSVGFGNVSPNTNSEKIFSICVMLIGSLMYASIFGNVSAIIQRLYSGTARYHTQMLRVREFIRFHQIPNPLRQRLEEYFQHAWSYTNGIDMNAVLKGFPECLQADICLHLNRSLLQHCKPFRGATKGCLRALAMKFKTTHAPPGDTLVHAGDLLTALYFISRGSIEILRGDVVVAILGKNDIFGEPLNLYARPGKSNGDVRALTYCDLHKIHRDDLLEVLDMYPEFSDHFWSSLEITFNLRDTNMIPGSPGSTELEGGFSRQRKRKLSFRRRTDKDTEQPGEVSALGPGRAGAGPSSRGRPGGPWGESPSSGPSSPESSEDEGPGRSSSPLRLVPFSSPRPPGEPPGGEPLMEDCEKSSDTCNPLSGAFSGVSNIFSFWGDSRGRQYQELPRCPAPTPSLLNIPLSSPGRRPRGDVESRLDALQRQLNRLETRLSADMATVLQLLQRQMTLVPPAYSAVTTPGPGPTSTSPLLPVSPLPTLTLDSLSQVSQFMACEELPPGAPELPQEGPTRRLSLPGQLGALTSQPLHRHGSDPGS
method.description: hERG inhibitory activity assay (automated patch-clamp, CHO-K1 cells)
readout: pIC50
In simple prose, pIC50 is minus the logarithm base ten of a concentration in moles per litre.

input: Answer with reported pIC50 of O=C(N[C@H]1CC[C@@]2(O)[C@H]3Cc4ccc(O)c5c4[C@@]2(CCN3CC2CC2)[C@H]1O5)c1nccs1 [Compound 6]
output: 5.13

====

method.description: In vivo BBB-penetration studies (LC-MS/MS of brain and plasma)
Design: species or system mouse
experimental.context: Swiss Webster, mouse, brain and plasma, sc; 10 mg/kg s.c., 10 min; read-out: Brain-to-Plasma ratio
readout: Kp at 10 min
Field format: numeric only.

input: Answer with reported Kp at 10 min of "O=C(N[C@H]1CC[C@@]2(O)[C@H]3Cc4ccc(O)c5c4[C@@]2(CCN3CC2CC2)[C@H]1O5)c1nccs1"
output: 0.173

====

method.description: In vivo BBB-penetration studies (LC-MS/MS of brain and plasma)
Parameters: species or system mouse
experimental.context: Swiss Webster, mouse, brain, subcutaneous; 10 mg/kg s.c., 30 min, n = 3, mean ± SD; read-out: Brain concentration
readout: concentration at 30 min
Number first, unit second: that is the form wanted.

input: // Input: O=C(N[C@H]1CC[C@@]2(O)[C@H]3Cc4ccc(O)c5c4[C@@]2(CCN3CC2CC2)[C@H]1O5)c1nccs1 [Compound 6] . Output its concentration at 30 min only.
output: 264 ng/g
